Molecular target: PTP1B (Homo sapiens, UniProt P18031)
Sequence (P18031 1-435): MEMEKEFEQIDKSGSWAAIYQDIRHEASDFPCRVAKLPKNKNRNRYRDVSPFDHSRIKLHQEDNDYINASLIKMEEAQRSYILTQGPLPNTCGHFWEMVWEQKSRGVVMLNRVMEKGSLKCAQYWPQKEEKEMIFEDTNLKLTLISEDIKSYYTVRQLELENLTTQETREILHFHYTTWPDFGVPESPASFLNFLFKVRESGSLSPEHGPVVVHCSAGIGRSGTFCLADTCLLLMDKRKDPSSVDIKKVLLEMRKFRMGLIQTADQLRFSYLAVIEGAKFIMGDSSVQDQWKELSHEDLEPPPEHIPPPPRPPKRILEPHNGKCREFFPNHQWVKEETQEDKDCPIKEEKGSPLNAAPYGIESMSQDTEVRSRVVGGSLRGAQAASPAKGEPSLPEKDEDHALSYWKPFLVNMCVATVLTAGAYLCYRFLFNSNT
Assay: Enzyme kinetic assay
Format: biochemical
Conditions: Lineweaver–Burk plots

| COMPOUND | kinetic mode |
| --- | --- |
| O=c1cc(-c2ccc(O)cc2)oc2cc(O)cc(O)c12 [Compound 8, apigenin] | competitive |
| CC1(C)C=Cc2c(cc(O)c3c(=O)cc(-c4ccc(O)cc4)oc23)O1 [Compound 7, atalantoflavone] | competitive |

Ref: paper PMC10905692
